# System: HEK-293T
# assayText: Multiplex assay against HEK293T
# Type: toxicity, cell-based
# conditionContext: human, 12 h, 10 µM, compound concentration 10 uM, replicate 2
measure: Population Apoptotic (%)
Kindly answer with a numeric value in %, unit omitted.

For C=CC(=O)Nc1ccc2ncnc(Nc3ccc(OCc4cccc(F)c4)c(Cl)c3)c2c1.Cc1ccc(S(=O)(=O)O)cc1 the molecule record lists Population Apoptotic (%) as 49

For Cl.N#Cc1ccc2[nH]cc(CCCCN3CCN(c4ccc5oc(C(N)=O)cc5c4)CC3)c2c1 [VILAZODONE HYDROCHLORIDE] the molecule record lists Population Apoptotic (%) as 82

For Cc1csc2c(N[C@@H](C)CN3CCN(S(=O)(=O)c4ccc(Cl)c(Cl)c4)CC3)ncnc12 the molecule record lists Population Apoptotic (%) as 80

Where do these numbers come from? They come from ChEMBL document CHEMBL4689842.
